target: Rat IKK-2 (Rattus norvegicus, UniProt Q9QY78); experiment: Rat IKK-2 enzyme assay; type: biochemical; conditions: read-out: IC50 (μM) rIKK-2
Sequence (Q9QY78 whole entry): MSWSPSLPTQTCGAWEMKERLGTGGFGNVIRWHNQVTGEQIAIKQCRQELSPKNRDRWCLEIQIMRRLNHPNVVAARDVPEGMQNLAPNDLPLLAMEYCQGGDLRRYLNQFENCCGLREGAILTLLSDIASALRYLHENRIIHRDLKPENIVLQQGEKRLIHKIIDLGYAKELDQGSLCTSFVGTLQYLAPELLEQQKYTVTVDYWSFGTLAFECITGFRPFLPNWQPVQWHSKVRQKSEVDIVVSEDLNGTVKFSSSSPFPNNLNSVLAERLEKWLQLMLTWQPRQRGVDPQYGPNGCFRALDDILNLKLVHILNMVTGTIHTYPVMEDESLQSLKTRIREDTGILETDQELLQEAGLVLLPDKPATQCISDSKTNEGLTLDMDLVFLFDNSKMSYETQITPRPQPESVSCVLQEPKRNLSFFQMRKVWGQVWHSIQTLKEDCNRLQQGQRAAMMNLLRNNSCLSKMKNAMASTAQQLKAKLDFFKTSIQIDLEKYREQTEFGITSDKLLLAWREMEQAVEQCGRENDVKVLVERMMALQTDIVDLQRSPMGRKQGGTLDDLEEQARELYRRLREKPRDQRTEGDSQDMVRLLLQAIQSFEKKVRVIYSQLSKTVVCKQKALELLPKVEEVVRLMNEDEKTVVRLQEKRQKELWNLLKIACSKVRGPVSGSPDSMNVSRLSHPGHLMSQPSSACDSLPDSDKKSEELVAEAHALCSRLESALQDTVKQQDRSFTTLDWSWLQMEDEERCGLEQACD
Could you please mark True for values of IC50 below 3 µM and False for values at or above it?

// known answers, use as guide
NC(=O)Nc1cn(-c2ccc(I)cc2)nc1C(N)=O	True
NC(=O)Nc1cn(-c2ccc([S+]([O-])c3ccncc3)cc2)nc1C(N)=O (centres unmarked)	True

Prompt: Strictly below 3 µM: is that where IC50 of NC(=O)Nc1cn(-c2cccc(-c3ccc(F)cc3O)c2)nc1C(N)=O sits?
Completion: True

Prompt: How about this compound: NC(=O)Nc1cn(-c2ccc(-c3ccc(C(=O)OCc4ccccc4F)c(F)c3)cc2)nc1C(N)=O
Completion: False

Prompt: How about this compound: CCCOc1ccc(-n2cc(NC(N)=O)c(C(N)=O)n2)cc1C
Completion: True

Numbers sourced from patent US20050197338A1.
